Numbers sourced from patent US20230250160A1.

Target: T1, tumor necrosis factor alpha (human (produced in the Human Secretome …, UniProt P01375 77-233, limits assumed))
T1 construct: also called TNFα; bTNFα
T1 sequence (P01375 77-233 limits assumed): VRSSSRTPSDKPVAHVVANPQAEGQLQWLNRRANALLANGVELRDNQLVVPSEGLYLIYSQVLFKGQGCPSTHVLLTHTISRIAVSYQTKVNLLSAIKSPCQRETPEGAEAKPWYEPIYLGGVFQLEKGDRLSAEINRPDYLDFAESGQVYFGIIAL
Assay: SPR Biacore T200, target on CM5 chip, ADAPT injected, 1:1 fit
We begin with a simple list: items and their reported Kd.

>  <Binder>
LIWAKASAVRELHRYGVSDFYYELIVKAKTVEGVEALKLHILAALP (designed binder) [ADAPT variant TNFα_09]

>  <Reading unit>
nM

>  <Kd>
3.6

$$$$
>  <Binder>
LIWAKAEAVQELFMYGVSDFYYDLIIKAKTVEGVEALKLHILAALP (designed binder, Single domain of about 6 kDa, made in E. coli, purified on HSA resin) [ADAPT variant TNFα_05]

>  <Reading unit>
nM

>  <Kd>
2.5

$$$$
